target: P. falciparum apicoplast DNA polymerase (Pf-apPOL) (Plasmodium falciparum); assay: Fluorescence-based high-throughput DNA polymerase assay (molecular beacon), primary screen and dose-response; assay type: biochemical; details: DRC-1; 180'; concentration 20;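 note: test concentration in µM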
Sequence (Q8ILY1 entry or part of it): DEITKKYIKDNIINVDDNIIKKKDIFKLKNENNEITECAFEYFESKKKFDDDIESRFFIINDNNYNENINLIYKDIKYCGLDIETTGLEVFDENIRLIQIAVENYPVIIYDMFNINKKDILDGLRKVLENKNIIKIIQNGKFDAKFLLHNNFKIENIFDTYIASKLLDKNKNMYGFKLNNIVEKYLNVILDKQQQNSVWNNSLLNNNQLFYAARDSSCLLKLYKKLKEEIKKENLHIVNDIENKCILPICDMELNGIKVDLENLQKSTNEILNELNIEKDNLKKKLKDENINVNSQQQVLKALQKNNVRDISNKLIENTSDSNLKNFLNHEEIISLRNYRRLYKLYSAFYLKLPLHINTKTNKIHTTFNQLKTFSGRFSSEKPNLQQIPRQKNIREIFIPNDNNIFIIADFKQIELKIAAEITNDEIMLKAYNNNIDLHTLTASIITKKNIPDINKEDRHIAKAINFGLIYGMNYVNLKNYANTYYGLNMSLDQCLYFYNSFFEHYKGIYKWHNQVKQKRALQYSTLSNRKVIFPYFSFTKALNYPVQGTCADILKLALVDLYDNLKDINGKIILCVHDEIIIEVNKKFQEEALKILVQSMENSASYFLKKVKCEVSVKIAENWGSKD
% inhibition apPOL 180' vs 10%: at or above is 1, below is 0.

Solved entries:
CCC(C)NC(=O)c1cc(NC(C)=O)cc2nc(C)ccc12 (stereo not drawn)    0
O=C(CSc1nnc(-c2ccco2)[nH]1)c1ccc(Cl)cc1    1
CC1=NNC(=O)C1Oc1ccc(Cl)cc1Cl (stereo not drawn)    0
COc1ccc(-c2n[nH]cc2Oc2ccc(Cl)cc2)c(O)c1    1

Please check the record `CCSc1nnc(NC(=O)Cc2csc(NC(=O)c3cnccn3)n2)s1` and state if its % inhibition apPOL 180' is at or above 10%.
0

Identify whether the reported % inhibition apPOL 180' of the following compound is 10% or greater: `O=C(Nc1c2c(nn1-c1ccc(Oc3ccccc3)cc1)CSC2)c1ccco1`
1

In plain terms: is recorded % inhibition apPOL 180' at least 10% for `Cc1ccc2c(C(=O)NCCc3cccnc3)cc(NC(=O)C(C)C)cc2n1` ?
0

Item `Cc1nc(/N=N/c2ccc(C(=O)[O-])cc2)c(COP(=O)([O-])[O-])c(C=O)c1O.[Na+].[Na+].[Na+]` with % inhibition apPOL 180' of 10% or above?
1

Reported % inhibition apPOL 180' at or above 10%? CO/N=C(\C(=O)N[C@@H]1C(=O)N2C(C(=O)[O-])=C(CSc3nc(=O)c([O-])nn3C)CSC12)c1csc(N)n1.[Na+].[Na+] (stereo partly drawn)
0

Evaluate `CC(=O)c1cc2c(N)c(/C(N)=N/C#N)sc2nc1C` : % inhibition apPOL 180' at minimum 10%?
0

Does `O=C(Nc1nnc(-c2ccno2)o1)c1ccc2ncsc2c1` have a reported % inhibition apPOL 180' of at least 10%?
1

Evaluate `COc1ccc(C(=O)Nc2cccc(-c3nc4ncccc4o3)c2)cc1[N+](=O)[O-]` : % inhibition apPOL 180' at minimum 10%?
1

Kindly determine if % inhibition apPOL 180' recorded for CCCCSc1nnc2c(n1)OC(c1ccc([N+](=O)[O-])o1)Nc1ccccc1-2 (stereo not drawn) is above or exactly 10%.
1

Could you please find out whether `COc1ccc(S(=O)(=O)/N=C2\NC(=O)/C(=C3\C(=O)Nc4ccc([N+](=O)[O-])cc43)S2)cc1` has % inhibition apPOL 180' that meets 10% or exceeds it?
1

# bool: % inhibition apPOL 180' of `CCCCOC(=O)CCCCCN1C(=O)C(=Cc2ccc(OC)cc2)SC1=S` >= 10%
1

Say whether CSC(C)C(=O)C=CN(C)C (stereo not drawn) shows % inhibition apPOL 180' of 10% or more.
0

Quick check, % inhibition apPOL 180' >= 10%? `Cc1ccccc1C(=O)N1CCc2c(nc3cc(-c4ccccc4)[nH]n3c2=O)C1`
1

Does the compound `CC(C)(C)c1cc(C(=O)C(C#N)=NNc2cccc(Cl)c2)no1` have recorded % inhibition apPOL 180' that is 10% or more?
1

====

Attribute: % inhibition apPOL 180'
target: UniProtKB Q8ILY1; assay: Fluorescence-based high-throughput DNA polymerase assay (molecular beacon), primary screen and dose-response; assay type: biochemical; conditions: DRC-2; 180'; concentration 10;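 note: test concentration in µM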
Write it as a number; the unit % goes unstated.

Completed entries (count: 4):
O=C(CSc1nnc(-c2ccco2)[nH]1)c1ccc(Cl)cc1    -2.67
O=C1C(=Cc2ccccc2O)Oc2ccc(O)cc21    8
N#CC(=NNc1cc(C(F)(F)F)cc(C(F)(F)F)c1)C(=O)c1ccco1    22
COc1ccc(NC(=O)Cn2ccc3c(=O)[nH]ccc32)cc1Cl [Molecule 10, COc1ccc(cc1Cl)NC(=O)Cn1ccc2c1cc[nH]c2=O]    62

What does the data say about its % inhibition apPOL 180'? Entry: COc1ccc(C2CC(c3ccc(Cl)cc3Cl)Nc3nc(N)nn32)cc1OC (centres unmarked)
30
